- TARGET_OF_ASSAY: Phosphatidylinositol 4,5-bisphosphate 3-kinase catalytic subunit alpha isoform (Homo sapiens)
- Sequence (P42336 whole entry, canonical isoform): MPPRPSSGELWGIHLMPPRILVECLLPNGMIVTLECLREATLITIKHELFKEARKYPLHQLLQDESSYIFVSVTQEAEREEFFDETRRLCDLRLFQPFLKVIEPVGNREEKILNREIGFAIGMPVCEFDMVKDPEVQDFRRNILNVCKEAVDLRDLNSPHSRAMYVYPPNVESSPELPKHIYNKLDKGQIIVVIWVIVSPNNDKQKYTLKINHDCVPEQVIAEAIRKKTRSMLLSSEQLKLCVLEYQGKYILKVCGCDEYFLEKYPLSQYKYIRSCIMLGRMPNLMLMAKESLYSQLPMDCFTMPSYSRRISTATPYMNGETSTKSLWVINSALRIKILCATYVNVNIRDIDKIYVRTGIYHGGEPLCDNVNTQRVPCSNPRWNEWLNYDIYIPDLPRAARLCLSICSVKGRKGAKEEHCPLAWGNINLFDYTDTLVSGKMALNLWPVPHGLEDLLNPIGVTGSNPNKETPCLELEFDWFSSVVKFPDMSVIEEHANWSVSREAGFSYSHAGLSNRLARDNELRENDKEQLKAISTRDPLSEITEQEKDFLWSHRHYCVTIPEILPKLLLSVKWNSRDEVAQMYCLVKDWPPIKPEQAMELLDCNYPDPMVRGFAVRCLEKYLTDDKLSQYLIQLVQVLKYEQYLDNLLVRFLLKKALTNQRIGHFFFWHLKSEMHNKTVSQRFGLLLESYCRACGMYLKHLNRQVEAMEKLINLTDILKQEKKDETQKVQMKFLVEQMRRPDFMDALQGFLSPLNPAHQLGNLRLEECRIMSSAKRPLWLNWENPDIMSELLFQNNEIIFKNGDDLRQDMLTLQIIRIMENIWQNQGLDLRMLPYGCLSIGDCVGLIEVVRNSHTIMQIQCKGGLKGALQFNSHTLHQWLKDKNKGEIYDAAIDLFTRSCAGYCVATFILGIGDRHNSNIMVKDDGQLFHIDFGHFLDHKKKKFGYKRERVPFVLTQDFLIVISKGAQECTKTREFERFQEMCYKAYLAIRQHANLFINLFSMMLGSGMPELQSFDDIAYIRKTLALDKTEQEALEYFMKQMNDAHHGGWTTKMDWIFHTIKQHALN
# Lookup of reported IC50 keyed by entry
Report as a plain number; the unit nM is understood.

Known IC50 results, listed for orientation:
item_smiles=O=C(Nc1ccncc1)Nc1ccc(-c2nc(N3CCOCC3)c3ccn(CCO)c3n2)cc1 reported_measurement=5
item_smiles=CN(C)CCNC(=O)c1ccc(NC(=O)Nc2ccc(-c3nc(N4CCOCC4)c4ccn(CC(F)(F)F)c4n3)cc2)cc1 reported_measurement=1.4
item_smiles=CCn1ccc2c(N3CCOCC3)nc(-c3ccc(NC(=O)Nc4ccc(C(=O)NCCN(C)C)cc4)cc3)nc21 reported_measurement=1.8
item_smiles=CN(C)CCn1ccc2c(N3CCOCC3)nc(-c3ccc(NC(=O)Nc4ccncc4)cc3)nc21 reported_measurement=8
item_smiles=CCn1ccc2c(N3CCOCC3)nc(-c3ccc(NC(=O)Nc4ccc(C(=O)N5CCN(C)CC5)cc4)cc3)nc21 reported_measurement=2.7
item_smiles=CCn1ccc2c(N3CCOCC3)nc(-c3ccc(NC(=O)Nc4ccc(C(=O)N5CCNCC5)cc4)cc3)nc21 reported_measurement=0.8

Proceed to the following item.
Exercise: Which value of IC50 has been reported for CN1CCN(C(=O)c2ccc(NC(=O)Nc3ccc(-c4nc(N5CCOCC5)c5ccn(CC(F)(F)F)c5n4)cc3)cc2)CC1 in the records?
Solution: 2.4
